# MEASURED_ON: Protein deacetylase HDAC6 (Homo sapiens)
# Sequence (Q9UBN7 whole entry): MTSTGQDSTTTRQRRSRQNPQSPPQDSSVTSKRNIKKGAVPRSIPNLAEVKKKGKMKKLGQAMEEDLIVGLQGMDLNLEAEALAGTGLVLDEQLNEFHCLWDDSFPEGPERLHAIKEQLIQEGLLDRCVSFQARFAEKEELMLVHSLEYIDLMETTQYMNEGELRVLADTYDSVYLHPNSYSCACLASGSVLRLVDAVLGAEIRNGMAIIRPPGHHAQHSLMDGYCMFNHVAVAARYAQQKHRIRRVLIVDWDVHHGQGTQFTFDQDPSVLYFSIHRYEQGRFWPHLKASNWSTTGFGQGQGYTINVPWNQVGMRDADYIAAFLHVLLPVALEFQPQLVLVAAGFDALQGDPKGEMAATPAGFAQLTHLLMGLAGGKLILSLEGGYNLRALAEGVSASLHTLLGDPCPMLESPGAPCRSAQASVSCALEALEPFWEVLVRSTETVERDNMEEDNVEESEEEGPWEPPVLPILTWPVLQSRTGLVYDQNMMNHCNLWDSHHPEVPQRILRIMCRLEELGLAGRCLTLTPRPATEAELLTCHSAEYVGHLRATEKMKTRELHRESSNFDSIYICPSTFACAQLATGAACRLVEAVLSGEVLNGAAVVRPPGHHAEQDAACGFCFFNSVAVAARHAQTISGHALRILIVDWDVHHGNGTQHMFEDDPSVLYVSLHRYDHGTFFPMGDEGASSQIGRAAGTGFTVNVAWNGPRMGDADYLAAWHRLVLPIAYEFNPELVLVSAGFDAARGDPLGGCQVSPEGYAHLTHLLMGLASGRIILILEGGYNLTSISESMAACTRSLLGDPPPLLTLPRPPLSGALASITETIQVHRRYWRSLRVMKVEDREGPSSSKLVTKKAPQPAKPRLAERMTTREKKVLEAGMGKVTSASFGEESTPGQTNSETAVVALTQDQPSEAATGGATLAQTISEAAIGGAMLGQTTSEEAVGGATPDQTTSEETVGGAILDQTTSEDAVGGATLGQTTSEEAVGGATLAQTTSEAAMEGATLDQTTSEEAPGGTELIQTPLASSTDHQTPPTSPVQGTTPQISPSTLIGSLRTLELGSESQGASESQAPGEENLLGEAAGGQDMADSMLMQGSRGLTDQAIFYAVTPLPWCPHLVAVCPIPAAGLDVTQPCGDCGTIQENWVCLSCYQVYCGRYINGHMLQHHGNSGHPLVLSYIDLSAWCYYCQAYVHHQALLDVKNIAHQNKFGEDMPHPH
# ASSAY_NOTES: Inhibition of human recombinant HDAC6 using Boc-lys(Ac)-AMC as substrate preincubated for 20 mins with substrate measured after 60 mins by fluorescence analysis
OBSERVED_PROPERTY: IC50 (nM)

compound_string=CN(C)c1ccc(C/C(=N\O)C(=O)NCCS)cc1 val=2300
compound_string=COc1ccc(C/C(=N\O)C(=O)NCCS)cc1I val=240
compound_string=O=C(Cc1ccc(O)c(Br)c1)C(=O)NCCS val=1000
compound_string=O=C(Cc1ccc(O)c(Br)c1)C(=O)NCCSSCCNC(=O)C(=O)Cc1ccc(O)c(Br)c1 val=9000
compound_string=CSc1ccc(C/C(=N\O)C(=O)NCCS)cc1Br val=190
compound_string=COc1ccc(C/C(=N\O)C(=O)NCCS)cc1Br val=3200
compound_string=COc1ccc(CC(=O)C(=O)NCCS)cc1Br val=250
compound_string=COc1ccc(C/C(=N\O)C(=O)NCCSSCCNC(=O)/C(Cc2ccc(OC)c(Br)c2)=N/O)cc1Br val=2000
compound_string=COc1ccc(CC(=O)C(=O)NCCSSCCNC(=O)C(=O)Cc2ccc(OC)c(Br)c2)cc1Br val=8000
compound_string=O=C(CCNC(=O)/C(Cc1ccc(O)c(Br)c1)=N/O)NO val=190
compound_string=COc1cc(C/C(=N\O)C(=O)NCCS)ccc1SC val=1400

###

# MEASURED_ON: DNA (cytosine-5)-methyltransferase 1 (Homo sapiens, UniProt P26358)
# Sequence (P26358 whole entry): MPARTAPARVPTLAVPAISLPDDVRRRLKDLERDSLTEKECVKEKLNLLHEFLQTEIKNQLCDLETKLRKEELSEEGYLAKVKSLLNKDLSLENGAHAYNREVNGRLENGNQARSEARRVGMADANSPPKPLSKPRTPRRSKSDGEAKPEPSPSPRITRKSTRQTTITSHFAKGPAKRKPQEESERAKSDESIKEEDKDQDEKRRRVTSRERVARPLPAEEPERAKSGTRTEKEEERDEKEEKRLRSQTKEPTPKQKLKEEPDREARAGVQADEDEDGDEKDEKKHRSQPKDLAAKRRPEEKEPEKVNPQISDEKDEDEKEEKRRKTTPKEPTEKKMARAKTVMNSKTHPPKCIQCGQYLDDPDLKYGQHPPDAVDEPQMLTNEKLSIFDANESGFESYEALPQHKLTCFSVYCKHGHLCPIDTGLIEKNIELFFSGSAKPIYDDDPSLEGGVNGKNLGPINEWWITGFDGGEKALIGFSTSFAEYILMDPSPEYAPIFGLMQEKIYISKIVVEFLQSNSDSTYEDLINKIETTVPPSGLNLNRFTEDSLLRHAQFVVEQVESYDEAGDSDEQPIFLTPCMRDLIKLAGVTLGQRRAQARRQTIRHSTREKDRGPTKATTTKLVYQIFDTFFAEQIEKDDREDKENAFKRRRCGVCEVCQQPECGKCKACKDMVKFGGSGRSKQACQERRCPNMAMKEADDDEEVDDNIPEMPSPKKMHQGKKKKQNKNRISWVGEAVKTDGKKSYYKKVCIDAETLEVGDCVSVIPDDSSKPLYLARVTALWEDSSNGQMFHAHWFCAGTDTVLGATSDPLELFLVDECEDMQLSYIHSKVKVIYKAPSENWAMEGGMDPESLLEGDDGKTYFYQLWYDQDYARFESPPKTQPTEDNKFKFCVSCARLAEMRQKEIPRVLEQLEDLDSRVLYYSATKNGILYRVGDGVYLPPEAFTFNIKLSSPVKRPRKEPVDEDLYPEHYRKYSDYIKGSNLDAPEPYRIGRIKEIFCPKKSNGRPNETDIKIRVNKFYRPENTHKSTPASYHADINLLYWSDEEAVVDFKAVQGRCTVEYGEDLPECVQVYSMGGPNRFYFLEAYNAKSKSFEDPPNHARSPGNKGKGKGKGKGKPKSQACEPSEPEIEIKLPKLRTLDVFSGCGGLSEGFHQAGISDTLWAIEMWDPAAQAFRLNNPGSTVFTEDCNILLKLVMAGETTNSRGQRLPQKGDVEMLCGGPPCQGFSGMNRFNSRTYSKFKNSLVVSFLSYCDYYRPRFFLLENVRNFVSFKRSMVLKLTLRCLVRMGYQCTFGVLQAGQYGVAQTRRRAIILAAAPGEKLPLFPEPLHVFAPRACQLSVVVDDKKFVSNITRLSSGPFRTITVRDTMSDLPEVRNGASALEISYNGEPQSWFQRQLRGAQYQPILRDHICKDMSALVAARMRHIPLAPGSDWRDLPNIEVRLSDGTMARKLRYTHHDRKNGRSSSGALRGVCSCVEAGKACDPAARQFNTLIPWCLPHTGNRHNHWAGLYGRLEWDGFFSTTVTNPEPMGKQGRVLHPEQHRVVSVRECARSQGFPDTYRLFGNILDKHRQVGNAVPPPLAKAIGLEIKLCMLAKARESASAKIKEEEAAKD
pIC50: −log10 of the molar value.
OBSERVED_PROPERTY: pIC50

compound_string=O=C(NCCSSCCNC(=O)/C(Cc1ccc(O)c(Br)c1)=N/O)/C(Cc1ccc(O)c(Br)c1)=N/O val=7.73

###

# MEASURED_ON: Protein deacetylase HDAC6 (Homo sapiens, UniProt Q9UBN7)
# ASSAY_NOTES: Inhibition of human recombinant HDAC6 using Boc-lys(Ac)-AMC as substrate preincubated for 20 mins with substrate measured after 60 mins by fluorescence analysis
Simple rule here: IC50 less than 2000 nM is true (1), otherwise false (0).

compound_string=CO/N=C(\Cc1ccc(OC)c(Br)c1)C(=O)NCCS class_assignment="false (0)"
compound_string=N/N=C(\Cc1ccc(O)c(Br)c1)C(=O)NCCS class_assignment="true (1)"
compound_string=COc1ccc(CC(=O)C(=O)NCCSC)cc1Br class_assignment="false (0)"
compound_string=COc1ccc(C/C(=N\N)C(=O)NCCSC)cc1Br class_assignment="false (0)"
compound_string=O=C(NCCS)/C(Cc1ccc(O)cc1)=N/O class_assignment="true (1)"
compound_string=COc1cc(C/C(=N\O)C(=O)NCCS)cc(I)c1OC class_assignment="true (1)"
compound_string=O=C(O)CCP(CCC(=O)O)CCC(=O)O class_assignment="false (0)"
compound_string=CSCCNC(=O)C(=O)Cc1ccc(O)c(Br)c1 class_assignment="false (0)"

###

# MEASURED_ON: Histone deacetylase 1 (Homo sapiens)
# Sequence (Q13547 whole entry): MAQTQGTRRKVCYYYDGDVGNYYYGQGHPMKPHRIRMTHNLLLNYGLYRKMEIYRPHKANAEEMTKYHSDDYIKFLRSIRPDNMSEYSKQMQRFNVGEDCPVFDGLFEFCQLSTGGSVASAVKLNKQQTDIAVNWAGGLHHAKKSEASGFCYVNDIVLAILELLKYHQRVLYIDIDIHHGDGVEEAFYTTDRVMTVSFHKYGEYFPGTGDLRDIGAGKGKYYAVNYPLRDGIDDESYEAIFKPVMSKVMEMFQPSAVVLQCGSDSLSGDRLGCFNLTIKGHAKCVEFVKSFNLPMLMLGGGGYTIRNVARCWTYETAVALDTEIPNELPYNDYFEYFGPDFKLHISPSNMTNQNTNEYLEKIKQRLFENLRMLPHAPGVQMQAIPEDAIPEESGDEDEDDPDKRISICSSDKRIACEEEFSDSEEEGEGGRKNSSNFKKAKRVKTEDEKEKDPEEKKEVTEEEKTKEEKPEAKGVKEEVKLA
# ASSAY_NOTES: Inhibition of human recombinant HDAC1 using Boc-lys(Ac)-AMC as substrate preincubated for 20 mins with substrate measured after 60 mins by fluorescence analysis
OBSERVED_PROPERTY: IC50 (nM)

compound_string=COc1ccc(C/C(=N\N)C(=O)NCCSC)cc1Br measured_on="Histone deacetylase 1 (Homo sapiens)" val=12600
compound_string=COc1ccc(CC(=O)C(=O)NCCSSCCNC(=O)C(=O)Cc2ccc(OC)c(Br)c2)cc1Br measured_on="Histone deacetylase 1 (Homo sapiens)" val=9000
compound_string=N/N=C(\Cc1ccc(O)c(Br)c1)C(=O)NCCS measured_on="Histone deacetylase 1 (Homo sapiens)" val=5
compound_string=CN(C)c1ccc(C/C(=N\O)C(=O)NCCS)cc1 measured_on="Histone deacetylase 1 (Homo sapiens)" val=1
compound_string=O=C(NCCS)/C(Cc1cccc([N+](=O)[O-])c1)=N/O measured_on="Histone deacetylase 1 (Homo sapiens)" val=1
compound_string=O=C(NCCS)/C(Cc1ccc(F)c(Br)c1)=N/O measured_on="Histone deacetylase 1 (Homo sapiens)" val=1

###

# MEASURED_ON: Histone deacetylase-like amidohydrolase (Alcaligenes sp. (strain DSM 11172) (Bordetella sp. (strain FB188))) (UniProt Q70I53)
# Sequence (whole entry): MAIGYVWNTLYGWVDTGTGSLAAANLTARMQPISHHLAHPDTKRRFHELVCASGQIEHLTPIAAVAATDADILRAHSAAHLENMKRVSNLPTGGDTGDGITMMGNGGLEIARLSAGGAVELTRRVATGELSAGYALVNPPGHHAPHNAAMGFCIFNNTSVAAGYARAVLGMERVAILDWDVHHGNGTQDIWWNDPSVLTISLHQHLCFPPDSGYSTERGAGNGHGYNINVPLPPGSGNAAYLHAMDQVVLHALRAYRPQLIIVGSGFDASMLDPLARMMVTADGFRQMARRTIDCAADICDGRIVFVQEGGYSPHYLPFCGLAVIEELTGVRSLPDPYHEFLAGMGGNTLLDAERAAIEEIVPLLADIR
# ASSAY_NOTES: Inhibition of Bordetella sp. (strain FB188) N-terminus His-tagged HDAH expressed in Escherichia coli BL21 (DE3) up to 100 uM
# CONDITION: Alcaligenaceae bacterium FB188
The source made the active and inactive calls. The rule behind the calls is not given here.
Outcome codes: active, inactive

compound_string=CSc1ccc(C/C(=N\O)C(=O)NCCSSCCNC(=O)/C(Cc2ccc(SC)c(Br)c2)=N/O)cc1Br class_assignment=inactive
compound_string=COc1ccc(C/C(=N\N)C(=O)NCCS)cc1Br class_assignment=inactive
compound_string=O=C(CCCNC(=O)/C(Cc1ccc(O)c(Br)c1)=N/O)NO class_assignment=active
compound_string=COc1ccc(C/C(=N\O)C(=O)NCCS)cc1Br class_assignment=inactive
compound_string=COc1ccc(CC(=O)C(=O)NCCSC)cc1Br class_assignment=inactive
compound_string=COc1ccc(C/C(=N\O)C(=O)NCCS)cc1OC class_assignment=inactive
compound_string=O=C(CCNC(=O)/C(Cc1ccc(O)c(Br)c1)=N/O)NO class_assignment=active
compound_string=CSCCNC(=O)/C(Cc1ccc(O)c(Br)c1)=N/N class_assignment=inactive
compound_string=CN(C)c1ccc(C/C(=N\O)C(=O)NCCSSCCNC(=O)/C(Cc2ccc(N(C)C)c(Br)c2)=N/O)cc1Br class_assignment=inactive
compound_string=O=C(NCCSSCCNC(=O)/C(Cc1cc(Br)c(O)c(Br)c1)=N/O)/C(Cc1cc(Br)c(O)c(Br)c1)=N/O class_assignment=inactive
compound_string=O=C(NCCS)/C(Cc1ccc(F)c(Br)c1)=N/O class_assignment=inactive
compound_string=O=C(NCCS)/C(Cc1ccccc1)=N/O class_assignment=inactive
compound_string=O=C(NCCSSCCNC(=O)/C(Cc1ccc(F)cc1)=N/O)/C(Cc1ccc(F)cc1)=N/O class_assignment=inactive
compound_string=CO/N=C(\Cc1ccc(O)c(Br)c1)C(=O)NCCSSCCNC(=O)/C(Cc1ccc(O)c(Br)c1)=N/OC class_assignment=inactive
compound_string=CN(C)c1ccc(C/C(=N\O)C(=O)NCCS)cc1Br class_assignment=inactive
compound_string=COc1cc(C/C(=N\O)C(=O)NCCSSCCNC(=O)/C(Cc2cc(Br)c(OC)c(OC)c2)=N/O)cc(Br)c1OC class_assignment=inactive
compound_string=COc1cc(C/C(=N\O)C(=O)NCCS)ccc1SC class_assignment=inactive
compound_string=COc1ccc(C/C(=N\O)C(=O)NCCS)cc1I class_assignment=inactive
compound_string=COc1cc(C/C(=N\O)C(=O)NCCS)cc(Br)c1OC class_assignment=inactive
compound_string=O=C(NCCSSCCNC(=O)/C(Cc1ccc(F)c(Br)c1)=N/O)/C(Cc1ccc(F)c(Br)c1)=N/O class_assignment=inactive
compound_string=CO/N=C(\Cc1ccc(OC)c(Br)c1)C(=O)NCCSSCCNC(=O)/C(Cc1ccc(OC)c(Br)c1)=N/OC class_assignment=inactive
